Consider the following substances; for each one, report its Tm.
method_notes: melting temperature; melt of duplexes
experimental_conditions: sodium 0.0675 M; strand 1 µM
Answers are plain numbers, in °C.

Use the examples below as a reference point.
CGACGTGCCTAATGTGCTG+CAGCACATCGTGCACGTCG ((((((((...((((((((+))))))))...))))))))
43.1
CGACGTGCCGGATGTGCTG+CAGCACATAGAGCACGTCG ((((((((...((((((((+))))))))...))))))))
50.2
CGACGTGCTGCATGTGCTG+CAGCACATGGCGCACGTCG ((((((((..(((((((((+)))))))))..))))))))
55.3

// for each substance in input: emit Tm
1. CGACGTGCGCGATGTGCTG+CAGCACATTCAGCACGTCG ((((((((...((((((((+))))))))...))))))))
2. CGACGTGCATTATGTGCTG+CAGCACATCCCGCACGTCG ((((((((...((((((((+))))))))...))))))))
3. CGACGTGCCGTATGTGCTG+CAGCACATGACGCACGTCG ((((((((...((((((((+))))))))...))))))))

Solution:
1. 51.7
2. 46.1
3. 47.8

Each substance below has a recorded value; state its Tm.
1. CGACGTGCGGCATGTGCTG+CAGCACATCAGGCACGTCG ((((((((...((((((((+))))))))...))))))))
2. CGACGTGCTTTATGTGCTG+CAGCACATACTGCACGTCG ((((((((..(((((((((+)))))))))..))))))))
3. CGACGTGCTTAATGTGCTG+CAGCACATTATGCACGTCG ((((((((.((((((((((+)))))))))).))))))))
4. CGACGTGCCGTATGTGCTG+CAGCACATGTTGCACGTCG ((((((((...((((((((+))))))))...))))))))
5. CGACGTGCTGGATGTGCTG+CAGCACATATAGCACGTCG (((((((((..((((((((+))))))))..)))))))))
6. CGACGTGCATCATGTGCTG+CAGCACATGATGCACGTCG (((((((((((((((((((+)))))))))))))))))))
7. CGACGTGCCCGATGTGCTG+CAGCACATCGGGCACGTCG (((((((((((((((((((+)))))))))))))))))))

Solution:
51
50.3
56.5
48.3
54.6
64.8
68.2

Your task in this section: give Tm for each listed record.
1. CGACGTGCGCCATGTGCTG+CAGCACATACCGCACGTCG (((((((((..((((((((+))))))))..)))))))))
2. CGACGTGCCGTATGTGCTG+CAGCACATAATGCACGTCG ((((((((..(((((((((+)))))))))..))))))))
3. CGACGTGCGAGATGTGCTG+CAGCACATCTGGCACGTCG ((((((((.((((((((((+)))))))))).))))))))

Solution:
1. 51
2. 50.3
3. 59

Please supply Tm for each of the following items, keeping them in order.
1. CGACGTGCTGTATGTGCTG+CAGCACATGTTGCACGTCG ((((((((...((((((((+))))))))...))))))))
2. CGACGTGCCACATGTGCTG+CAGCACATGCCGCACGTCG ((((((((..(((((((((+)))))))))..))))))))

Solution:
1: 50.4; 2: 52
